Exercise: for every item that follows, state its recorded protein stability index.
B1: TOR1AIP2 (parent)
chain: AGQEGEDTLRRRLLAPEAGSHPQQ

Variants of: B1
Experiment: protein stability index of a GFP-peptide fusion (GPS, HEK-293T) (PSI 1-6); higher = more stable;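 also: lentivirally expressed fusions sorted by FACS into six bins by GFP to DsRed ratio, PSI derived from sequencing read proportions per bin multiplied by bin number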
Conditions: c terminus: a fixed tail appended
Respond using a number only.

Problem: Reported protein stability index, variant `R12S` : ____
Solution: 3.03

Problem: Same lookup for `D7M` , please.
Solution: 1.88

Problem: Repeat for the following variant: `Q3C`
Solution: 1.34

Problem: Moving on to `L14C`
Solution: 4.91

Problem: Please give the result for `A15T` too.
Solution: 3.68

Problem: Now consider `A1S` .
Solution: 1.4

Problem: Thanks! And `L14Y` ?
Solution: 4.5

Problem: Try the variant `T8I`
Solution: 2.17

Problem: Similarly, `T8C` ?
Solution: 2.42

Problem: Also, `E4S` please.
Solution: 2.31

Problem: How about `Q3D` ?
Solution: 3.76

Problem: Follow-up entry: `P16R`
Solution: 4.7

Problem: Now this one: `P16Q`
Solution: 5.21

Problem: Please do the same for `P22I` as well.
Solution: 2.56

Problem: One more variant: `H21T`
Solution: 2.26

Problem: Another variant to look at: `T8L`
Solution: 2.28

Problem: Please give the result for `Q23S` too.
Solution: 1.85

Problem: Now consider `A15E` .
Solution: 5.18

Problem: Now give it for `Q23R` too.
Solution: 2.54

Problem: Thanks! And `E4C` ?
Solution: 2.16

Problem: Next: `E17I`
Solution: 4.11

Problem: Next variant: `Q3G`
Solution: 2.65
